system: HeLa Kyoto cells; details: human
Counter-ions that a name gives are not always drawn.
reported_metric: TC50 SFV (7 h) (µM)
Could you give me the number in µM? Just the number is fine.

Some compounds with known TC50 SFV (7 h) results, for comparison:
{"compound": "CC(C)COCC(CN(Cc1ccccc1)c1ccccc1)N1CCCC1 (stereo not drawn) [Bepridil, Bepridil hydrochloride]", "assay_target": "HeLa Kyoto cells", "reported_metric": "TC50 SFV (7 h)", "val": 34.9}
{"compound": "CNc1ccc2oc(C[C@H]3O[C@@]4(CC[C@H]3C)O[C@H]([C@H](C)C(=O)c3ccc[nH]3)[C@H](C)C[C@H]4C)nc2c1C(=O)O [Calcimycin]", "assay_target": "HeLa Kyoto cells", "reported_metric": "TC50 SFV (7 h)", "val": 4.1}

Please look at the following compound next.
Which TC50 SFV (7 h) is listed for O=C1c2c(O)ccc(O)c2C(=O)c2c(NCCNCCO)ccc(NCCNCCO)c21 [Mitoxantrone, Mitoxantrone dihydrochloride] ?
43.2
